B1: FEM1A (parent)
chain: NIVEYLIQEQPGQEQVAGGEAQPG

variants of: B1; test: protein stability index of a GFP-peptide fusion (GPS, HEK-293T) (PSI 1-6); higher = more stable; conditions: c terminus: a fixed tail appended;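 also: lentivirally expressed fusions sorted by FACS into six bins by GFP to DsRed ratio, PSI derived from sequencing read proportions per bin multiplied by bin number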
# protein stability index annotations

construct sequence | protein stability index
NIVEYLAQEQPGQEQVAGGEAQPG [I7A] | 5.14
NIVEYLIQEQPPQEQVAGGEAQPG [G12P] | 4.87
NIVEYLIQEQPGQEQVAGGEAQPM [G24M] | 3.86
NIVEYLIQEQPRQEQVAGGEAQPG [G12R] | 2.94
NIVMYLIQEQPGQEQVAGGEAQPG [E4M] | 2
NIVEYLIQEQPGQECVAGGEAQPG [Q15C] | 4.19
NIVEYLIMEQPGQEQVAGGEAQPG [Q8M] | 3.66
NIVEYLIQEQPGQEQVAGGEAQPQ [G24Q] | 4.37
NIVEYLIQEQPGQEQVAGEEAQPG [G19E] | 5.05
NIVEYLIKEQPGQEQVAGGEAQPG [Q8K] | 4.06
NIVEYLIQEQPGQEQVAYGEAQPG [G18Y] | 3.36
NIVEYLIQEQPGQEQVAGGEKQPG [A21K] | 4.28
NIVEYLIQEQPGQEQVAGMEAQPG [G19M] | 3.72
NIVEYLIQRQPGQEQVAGGEAQPG [E9R] | 2.88
NIVEYLIQEQYGQEQVAGGEAQPG [P11Y] | 2.65
NIVEYLIQEQPGQEQVAGGEAQPH [G24H] | 4.28
NIVEYLIQEQPGQEQVAAGEAQPG [G18A] | 4.2
NIVEYLIQEQPGSEQVAGGEAQPG [Q13S] | 3.85
NIVEYLIQEQPGDEQVAGGEAQPG [Q13D] | 4.11
NIVEYLIQEQPGQEQVAGGEANPG [Q22N] | 4.22
NIVEYLIQEQPGQEWVAGGEAQPG [Q15W] | 3.22
NIVEYLIQEQPCQEQVAGGEAQPG [G12C] | 4.03
PIVEYLIQEQPGQEQVAGGEAQPG [N1P] | 5.17
NIVEYLIQEQPGQEQVWGGEAQPG [A17W] | 2.73
NIVEYLIQEQPGQYQVAGGEAQPG [E14Y] | 2.69
NIVEYLIQEQPGQEQVAGGKAQPG [E20K] | 4.25
NIVEYLIQWQPGQEQVAGGEAQPG [E9W] | 2.45
NIVEYLIQEQPGQEQVAGGEAQPE [G24E] | 4.03
NIVEYLIQEQPGQETVAGGEAQPG [Q15T] | 3.17
NIVEYLIQEQPGQENVAGGEAQPG [Q15N] | 4.56
NIVEYLIQEVPGQEQVAGGEAQPG [Q10V] | 3.22
NIDEYLIQEQPGQEQVAGGEAQPG [V3D] | 5.67
NIVEYFIQEQPGQEQVAGGEAQPG [L6F] | 4.71
NIVDYLIQEQPGQEQVAGGEAQPG [E4D] | 4.79
NIVEYLIQEQPGQEQVAGGEAQFG [P23F] | 3.66
NIVEYLIQEQPGFEQVAGGEAQPG [Q13F] | 3.78
NIVEYLIQEQPGAEQVAGGEAQPG [Q13A] | 4.02
NIVEYLIQEQPGQEQVAGGECQPG [A21C] | 4.09
NIVEYLIQEQPGQHQVAGGEAQPG [E14H] | 3.48
NIVEYLIQEQPGQEQVAGGEAQPA [G24A] | 3.67
NIVEYLIQEQPGQEQVAGGQAQPG [E20Q] | 3.9
NIVEYLIQVQPGQEQVAGGEAQPG [E9V] | 2.06
NIVEYLISEQPGQEQVAGGEAQPG [Q8S] | 4.09
NIVEYLIQEQMGQEQVAGGEAQPG [P11M] | 2.6
NIVEYLIQEQPGQEQVAGLEAQPG [G19L] | 3.6
NIVEYLIQEQPGQEQVAGGEAQPP [G24P] | 4.12
NIVEYLVQEQPGQEQVAGGEAQPG [I7V] | 4.43
NIQEYLIQEQPGQEQVAGGEAQPG [V3Q] | 4.57
NIVEYLIQEQLGQEQVAGGEAQPG [P11L] | 2.21
NIVEYLIQEQPGQEQVAGGEAQIG [P23I] | 3.94
